# Tested on: Plasmodium falciparum
# measurement notes: Antimalarial activity against asexual blood stage chloroquine-sensitive Plasmodium falciparum 3d7 assessed as parasite growth inhibition by SYBR Green staining based fluorescence analysis
# Format: functional, organism-based
readout: IC50 (nM)
// return numeric value only (unit: nM, not printed)

Would you kindly share the measured IC50 for IVERMECTIN ?
1560

* * *

# Tested on: Huh-7
# measurement notes: Antimalarial activity against liver stage Plasmodium berghei infected in human Huh-7 cells assessed as inhibition by bioluminescence assay
# Type: functional, cell-based
# setup conditions: Homo sapiens, Huh-7
readout: IC50 (µM)
Kindly answer with a numeric value in µM, unit omitted.

State the recorded IC50 for this entry: COc1cc(NC(C)CCCN)c2ncccc2c1 (stereo unspecified)
2.4
